# tgt: κ-opioid receptor (Homo sapiens)
# Sequence (P41145 whole entry): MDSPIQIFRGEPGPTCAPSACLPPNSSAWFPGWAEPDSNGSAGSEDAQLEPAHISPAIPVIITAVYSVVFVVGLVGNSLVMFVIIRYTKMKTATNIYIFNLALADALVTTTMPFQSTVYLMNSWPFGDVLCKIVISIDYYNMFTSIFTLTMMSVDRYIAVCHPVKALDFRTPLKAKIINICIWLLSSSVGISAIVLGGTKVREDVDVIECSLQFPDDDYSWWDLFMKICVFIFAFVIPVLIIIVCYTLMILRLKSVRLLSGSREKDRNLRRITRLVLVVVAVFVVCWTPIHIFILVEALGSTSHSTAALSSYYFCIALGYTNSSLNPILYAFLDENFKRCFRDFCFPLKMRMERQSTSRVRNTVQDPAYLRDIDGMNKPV
# procedure-text: κ-opioid receptor GTPγS functional assay, U2OS cells
# Assay type: biochemical
# Set-up: expressed in transfected cells; host or cells: U-2 OS
experimental-readout: EC50 (nM)
# value in nM; strip the unit string

**Q:** Write down the reported EC50 of COc1ccc2c(c1)[C@]1(CCO)CCN(CC3CC3)[C@H](C2)[C@@H]1C [Compound 43] , test system: κ-opioid receptor (Homo sapiens).
**A:** 17.8

---

# tgt: μ-opioid receptor (Homo sapiens)
# Sequence (P35372 whole entry, species assumed): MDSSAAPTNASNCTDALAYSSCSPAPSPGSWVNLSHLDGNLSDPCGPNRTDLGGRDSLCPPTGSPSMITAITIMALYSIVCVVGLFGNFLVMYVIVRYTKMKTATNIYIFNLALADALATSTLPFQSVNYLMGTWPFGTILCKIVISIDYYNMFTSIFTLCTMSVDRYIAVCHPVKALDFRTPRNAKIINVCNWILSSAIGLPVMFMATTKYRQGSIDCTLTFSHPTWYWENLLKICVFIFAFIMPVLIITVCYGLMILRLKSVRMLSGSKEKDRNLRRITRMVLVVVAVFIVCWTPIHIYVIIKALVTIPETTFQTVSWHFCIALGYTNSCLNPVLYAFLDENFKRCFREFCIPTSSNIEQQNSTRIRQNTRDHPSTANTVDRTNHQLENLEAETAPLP
# procedure-text: biochemical
# Design: purchased Perkin Elmer, Shelton, Conn; host or cells: HEK-293 or CHO
# recorded-conditions: HEK-293 or CHO cells; read-out: GTPγS μ EC50
Mark Met only when EC50 stays strictly below 300 nM. Values equal to the cut-off are Not met.

CC(C)C[C@H](NCCCC[C@]12CCN(CC3CC3)[C@H](Cc3ccc(O)cc31)[C@@H]2C)C(=O)O	Met
C[C@H]1[C@H]2Cc3ccc(O)cc3[C@]1(CCNC(=O)NS(=O)(=O)c1ccc(F)cc1)CCN2CC1CC1	Met
C[C@H]1[C@H]2Cc3ccc(O)cc3[C@]1(CCNC(=O)Nc1ccc(F)cc1)CCN2CC1CC1	Met
C[C@H]1[C@H]2Cc3ccc(O)cc3[C@]1(CCNC(=O)c1ccc(C(N)=O)cc1)CCN2C	Met
C[C@H]1[C@H]2Cc3ccc(O)cc3[C@]1(CCN1CCS(=O)(=O)CC1)CCN2C	Met
C[C@H]1[C@H]2Cc3ccc(O)cc3[C@]1(CCN1CCN(C(c3ccc(F)cc3)c3ccc(F)cc3)CC1)CCN2C	Not met
COc1ccc2c(c1)[C@]1(CCNC(=O)CN)CCN(CC3CC3)[C@H](C2)[C@@H]1C	Not met
COc1ccc2c(c1)[C@]1(CCOCc3ccccc3)CCN(C)[C@H](C2)[C@@H]1C	Not met

**Q:** Record C[C@H]1[C@H]2Cc3ccc(O)cc3[C@]1(CCO)CCN2C : is its EC50 strictly below 300 nM?
**A:** Met

**Q:** Can you check C[C@H]1[C@H]2Cc3ccc(O)cc3[C@]1(CCOc1cncc(C(=O)O)c1)CCN2C next?
**A:** Not met

**Q:** Query COc1ccc2c(c1)[C@]1(CCNCC(=O)O)CCN(CC3CC3)[C@H](C2)[C@@H]1C next
**A:** Not met

**Q:** Now consider C[C@H]1[C@H]2Cc3ccc(O)cc3[C@]1(CCNC(=O)NS(=O)(=O)c1ccccc1)CCN2C and answer again.
**A:** Not met

**Q:** Quick one: C[C@H]1[C@H]2Cc3ccc(O)cc3[C@]1(CCNC(=O)NS(=O)(=O)c1ccc(F)cc1)CCN2C
**A:** Met

**Q:** Quick one: C[C@H]1[C@H]2Cc3ccc(O)cc3C1(CCNS(=O)(=O)N(C)C)CCN2C
**A:** Met

**Q:** Thanks! And C[C@@H]1[C@@H]2Cc3ccc(O)cc3[C@@]1(CCN1CCN(C(c3ccc(F)cc3)c3ccc(F)cc3)CC1)CCN2C ?
**A:** Not met
